System: TK-10
Protocol notes: NCI tumour cell line growth inhibition, 48 h
Active and inactive are the calls of the source. Rule as the data show it: active = GI50 up to about 1.1 µM and inactive = higher.
Measure name: GI50

Example entries begin here.
| Compound | Study system | GI50 |
| --- | --- | --- |
| O=C(CNC(=O)OCc1ccccc1)NCCCCC(NC(=O)OCc1ccccc1)C(=O)NC(CCCCNC(=O)CNC(=O)OCc1ccccc1)C(=O)OCc1ccccc1 (stereo not given) | TK-10 | > 62.5 µM (inactive) |
| CC(C)(C)OC(=O)C1=C(O)C(C(=O)OC(C)(C)C)C23CCCCC12C(C(=O)OC(C)(C)C)C(O)=C3C(=O)OC(C)(C)C (stereo not given) | TK-10 | > 100 µM (inactive) |
| O=C1c2cccc([N+](=O)[O-])c2C(=O)N1Cc1ccccc1 | TK-10 | > 100 µM (inactive) |
| [O-]/N=[N+](/[O-])C1CCCCC1=[N+]1CCOCC1 (stereo not given) | TK-10 | > 100 µM (inactive) |

Please examine the following record next.
Task: Could you share which GI50 value was measured for Cc1ccc(C2C(Cl)C(=O)N2NC(=O)c2ccc(N)cc2)cc1 (stereo not given) ?
Result: 43.6 µM (inactive)
